B1: CPEB3 Ribozyme (parent)
chain: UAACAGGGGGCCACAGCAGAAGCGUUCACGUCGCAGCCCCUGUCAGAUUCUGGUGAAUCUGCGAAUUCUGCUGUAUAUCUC

Variants of: B1
measurement_protocol: self-cleavage, relative activity (ratio to wild type); higher = more cleavage; in vitro, sequencing
observed_property: self-cleavage
Number only, please.

Here's what some known entries look like.
Name the recorded self-cleavage for C27U U60C .
0.14

Continue with A13G A57G
0.72

Continue with C27U A65U
0.14

Next:
Name the recorded self-cleavage for G24C U31G .
0.34

Continue with G19U A45C
0.22

Continue with G9A G10C
0.2
